Please provide measured GFP response vs DMSO for the entries that follow.
# PROTOCOL TEXT: TOR pathway LAP4-GFP level changes – S. cerevisiae, multiplex flow cytometry, primary screen (AID 1873)
# PARTICULARS: S. cerevisiae LAP4-GFP expression, 3 h, at 10 µM, stronger effect = higher value
Inconclusive results are not listed.
Give bare numbers, in %.

Completed entries (count: 5):
{"COMPOUND": "COCCNC(=O)CSc1ccc(Cl)cc1", "VAL": 88.7}
{"COMPOUND": "Oc1[nH]c2ccccc2c1C1=NCCCC1", "VAL": 99.4}
{"COMPOUND": "CCc1cc(C(N)=S)ccn1", "VAL": 99.1}
{"COMPOUND": "COc1cc2c(cc1OC)-c1cc(NC3CCCCCC3)nc(=O)n1CC2", "VAL": 94.7}
{"COMPOUND": "CC(C)C(=O)Nc1cccnc1", "VAL": 115}

// each listed compound needs a value for GFP response vs DMSO
1. O=C(OCC1CCCN2CCCCC12)c1ccc2c(c1)OCO2 (stereo unspecified)
2. Cc1ccc(CSCC(=O)N2CCCC2)cc1
3. CCCCCC(=O)O[C@]1(C(C)=O)CC[C@H]2[C@@H]3CCC4=CC(=O)CC[C@]4(C)[C@H]3CC[C@@]21C
4. Cc1cn([C@H]2C=C[C@@H](CO)O2)c(=O)[nH]c1=O
5. CC1(C)O[C@@H]2C[C@H]3[C@@H]4C[C@H](F)C5=CC(=O)C=C[C@]5(C)[C@@]4(F)[C@@H](O)C[C@]3(C)[C@]2(C(=O)CO)O1
6. O=C(O)Cc1ccc(-c2ccccc2)cc1

Output:
75.9
106
108
92
102
196

Data provenance is PubChem BioAssay.
